The measurements presented in this section are drawn from patent US10844045B2.

Entries and their measured Final pH follow.
Assay: Solubility of salt forms
Format: physicochemical
Conditions: final pH of the solubility test
// response body must contain only the number

| compound | numeric_result |
| --- | --- |
| C=CC(=O)Nc1cc(Nc2nccc(-c3cn(C)c4ccccc34)n2)c(OC)cc1OCCN(C)C [Compound 1] | 6.2 |
| C=CC(=O)Nc1cc(Nc2nccc(-c3cn(C)c4ccccc34)n2)c(OC)cc1OCCN(C)C.Cl [Compound 3] | 6.0 |

Request: What does the data say about its Final pH? Entry: C=CC(=O)Nc1cc(Nc2nccc(-c3cn(C)c4ccccc34)n2)c(OC)cc1OCCN(C)C [Compound 2]
Result: 4.9

Request: What does the data say about its Final pH? Entry: C=CC(=O)Nc1cc(Nc2nccc(-c3cn(C)c4ccccc34)n2)c(OC)cc1OCCN(C)C [Compound 6]
Result: 4.6

Request: What does the data say about its Final pH? Entry: C=CC(=O)Nc1cc(Nc2nccc(-c3cn(C)c4ccccc34)n2)c(OC)cc1OCCN(C)C.Cc1ccc(S(=O)(=O)O)cc1 [Compound 5]
Result: 5.8

Request: What does the data say about its Final pH? Entry: C=CC(=O)Nc1cc(Nc2nccc(-c3cn(C)c4ccccc34)n2)c(OC)cc1OCCN(C)C [Compound 4]
Result: 2.4
